Hello, the source for this data is PubChem BioAssay, in case you need it.

# Test system: Noggin (protein binding on small-molecule microarray)
# TEST PROTOCOL: Noggin binders on small-molecule microarray, primary screen, biochemical, 635/667 nm fluorescence (AID 1095);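 note: score merges 667 nm feature fluorescence with signal to noise over triplicate slides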
# SETTINGS: 635 nm fluorescence, higher = more signal
REPORTED PROPERTY: composite z-score
The response must contain the number and no unit.

Sample records with composite z-score:
C/C(=N\O)C(=O)NCCCCCNC(=O)OCc1ccccc1 = 0.65
O=C1c2ccccc2[C@@]2(Cc3ccccc3N(CC(F)(F)F)C2=O)[C@H](c2ccc(CO)cc2)N1C1CCCCC1 = 1.05

Record summary for `CC(C)CN1C(=O)[C@@]2(Cc3ccccc31)c1ccccc1C(=O)N(C1CCCCC1)[C@H]2c1ccc(CO)cc1` : reported composite z-score = -0.901

Form: compound = `COc1ccc([Si](C)(C)[C@@H]2[C@@H](CC(=O)N(CCO)Cc3ccccc3)O[C@]3(C(=O)N(Cc4cccc(N5CCC5=O)c4)c4ccccc43)[C@H]2C)cc1` ; composite z-score = 1.33
